System: PDPK1;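 also: KINOMEscan kinase panel screen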
Conditions: concentration: 1 μM, replicates: in singlicate; n = 1
Catalogue of molecules with associated %Inh
Report as a plain number; the unit % is understood.

Recorded %Inh, per entry:
| Smiles Input | Tested System | Measure | Quantitative Readout |
| --- | --- | --- | --- |
| Cl.Oc1cccc(Nc2ccnc3cc(-c4ccncc4)ccc23)c1 | PDPK1 | %Inh | 0 |
| O=C(c1ccc(-c2cc(-c3c[nH]nc3-c3ccccn3)ccn2)cc1)N1CCOCC1 | PDPK1 | %Inh | 0 |
| O=C(NCCCN1CCOCC1)c1cccc(Nc2nccc(Nc3ccc(Oc4ccccc4)cc3)n2)c1 | PDPK1 | %Inh | 9 |
| Cc1cccc(-c2nc(-c3ccc(S(C)(=O)=O)cc3)sc2-c2ccncc2)c1 | PDPK1 | %Inh | 26 |
| Cc1cccc(-c2nc(Nc3ccc4ncsc4c3)c3ccccc3n2)n1 | PDPK1 | %Inh | 0 |

Next molecule, please.
Ask | What does the record list as %Inh for COC(=O)Nc1nc2cc(Oc3ccc(NC(=O)Nc4cc(F)ccc4F)cc3)ccc2[nH]1.Cl ?
Reply | 0
